Target: human GPR40 receptor (Homo sapiens (Human), UniProt O14842)
Sequence (O14842 whole entry): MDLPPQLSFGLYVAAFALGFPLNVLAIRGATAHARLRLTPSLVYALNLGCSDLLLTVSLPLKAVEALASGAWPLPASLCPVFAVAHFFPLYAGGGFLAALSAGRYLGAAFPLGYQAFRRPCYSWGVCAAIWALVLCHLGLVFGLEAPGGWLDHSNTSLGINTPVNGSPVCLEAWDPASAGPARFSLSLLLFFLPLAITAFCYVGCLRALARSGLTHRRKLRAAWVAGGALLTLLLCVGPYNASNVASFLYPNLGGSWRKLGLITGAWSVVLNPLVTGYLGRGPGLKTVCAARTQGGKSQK
Assay: IP1 accumulation measurements using the IPOne assay system
Type: cell-based
Conditions: 1321N1 cells stably expressing human GPR40; IP1 accumulation; read-out: EC50
Protocol: IP1 accumulation measurements using the IPOne assay system—1321N1 cells stably expressing human GPR40 receptor (Euroscreen, Belgium) are seeded 24 h before the assay in white 384-well plates in culture medium containing 10% FCS, 1% Na-Pyruvate and 400 μg/mL G418. IP1 is assayed according to the manufacturer's description (Cisbio Bioassays, France). […] After an incubation time of 1 h at room temperature plates are measured using an EnVision™, Perkin Elmer. […]
value.kind: pEC50
One number for each entry, as −log10 of the molar value.

1) Cc1cc(OCCCS(C)(=O)=O)cc(C)c1-c1ccc(F)c2c1CC[C@H]2Nc1cnc([C@@H]2C[C@H]2C(=O)O)cn1 :: 6.28
2) COc1ccc(-c2cccc3c2CC[C@H]3Nc2cnc([C@H]3C[C@@H]3C(=O)O)cn2)cc1F :: 6.79

Report pEC50 for Cc1cc(C(=O)N(C)C)cc(C)c1-c1ccc(F)c2c1CC[C@H]2Nc1cnc([C@H]2C[C@@H]2C(=O)O)cn1 tested on human GPR40 receptor (Homo sapiens (Human), UniProt O14842).
7.12

----------
biological target: human GPR40 receptor (Homo sapiens (Human), UniProt O14842); test: IP1 accumulation measurements using the IPOne assay system; format: cell-based; details: 1321N1 cells stably expressing human GPR40; IP1 accumulation; read-out: EC50
value.kind: EC50 (nM)
Answers are plain numbers, in nM.

Some solved entries appear below for comparison.
1) CC(C)c1ccccc1-c1ccc(F)c2c1CC[C@H]2Nc1cnc([C@H]2C[C@@H]2C(=O)O)cn1 [Example 40] :: 16
2) Cc1cc(-c2nnnn2CC(C)(C)O)cc(C)c1-c1ccc(F)c2c1CC[C@H]2Nc1cnc([C@H]2C[C@@H]2C(=O)O)cn1 [Example 39] :: 3

Dear colleague, could you please provide EC50 for the compounds listed below?
1. Cc1cc(-c2ccc(=O)n(C)c2)cc(C)c1-c1ccc(F)c2c1CC[C@H]2Nc1cnc([C@H]2C[C@@H]2C(=O)O)cn1 [Example 33]
2. O=C(O)[C@H]1C[C@@H]1c1cnc(N[C@@H]2CCc3c(-c4c(Cl)cccc4Cl)ccc(F)c32)cn1 [Example 25]

[6, 7]

----------
target: human GPR40 receptor (Homo sapiens (Human), UniProt O14842); assay: IP1 accumulation measurements using the IPOne assay system; type: cell-based; details: 1321N1 cells stably expressing human GPR40; IP1 accumulation; read-out: EC50
Label yes when EC50 < 0.008 µM; otherwise no.

Use the examples below as a reference point.
1) COc1cc(-c2cc(C)c(-c3ccc(F)c4c3CC[C@H]4Nc3cnc([C@H]4C[C@@H]4C(=O)O)cn3)c(C)c2)ccn1 :: yes
2) Cc1cc(OCC(=O)O)cc(C)c1-c1ccc(F)c2c1CC[C@H]2Nc1cnc([C@H]2C[C@@H]2C(=O)O)cn1 :: no
3) Cc1cc(OC2CCOCC2)cc(C)c1-c1ccc(F)c2c1CC[C@H]2Nc1cnc([C@H]2C[C@@H]2C(=O)O)cn1 :: no
4) Cc1cc(-c2nnn(C)n2)cc(C)c1-c1cccc2c1CC[C@H]2Nc1cnc([C@H]2C[C@@H]2C(=O)O)cn1 :: yes
5) Cc1cc(OCCC(C)(C)O)cc(C)c1-c1ccc(F)c2c1CC[C@H]2Nc1cnc(C2C[C@@H]2C(=O)O)cn1 (stereo partly drawn) :: yes

Shift focus to the following entry.
Item Cc1cc(OCC2CCOCC2)cc(C)c1-c1ccc(F)c2c1CC[C@H]2Nc1cnc([C@H]2C[C@@H]2C(=O)O)cn1 : EC50 beneath 0.008 µM, strictly?
yes

----------
Give measured pEC50 for each item. Keep answers brief.
biological target: human GPR40 receptor (Homo sapiens (Human)); assay: IP1 accumulation measurements using the IPOne assay system; format: cell-based; conditions: given as IC50; own-compound values equal the EC50 of Table 2; read-out: GPR40: IC50
Numbers only, as −log10 of the molar value.

Some solved entries appear below for comparison.
1. Cc1cc(OCCCS(C)(=O)=O)cc(C)c1-c1ccc(F)c2c1CC[C@H]2Nc1cnc([C@H]2C[C@@H]2C(=O)O)cn1 :: 8.10
2. Cc1cc(-c2nnn(C)n2)cc(C)c1-c1ccc(F)c2c1CC[C@H]2Nc1cnc([C@H]2C[C@@H]2C(=O)O)cn1 :: 8.70
3. Cc1cc(OCCC(C)(C)O)cc(C)c1-c1ccc(F)c2c1CC[C@H]2Nc1cnc([C@H]2C[C@@H]2C(=O)O)cn1 :: 8.40

# input for lookup
Any idea what pEC50 was measured for Cc1cc(OCCCS(C)(=O)=O)cc(C)c1-c1ccc(F)c2c1CC[C@H]2Oc1ccc([C@H]2C[C@@H]2C(=O)O)cc1 [Example 11 in WO 2013/178575, reference compound] ?
8.10

----------
Give measured solubility at 24 h for each item. Keep answers brief.
assay: Aqueous solubility in buffer vs acetonitrile/water, LC-UV; assay type: physicochemical; details: buffer pH 6.8, aqueous buffer, kinetic from dmso stock; pH 6.8 buffer, 24 h shaking, 2.5% DMSO
Give bare numbers, in µg/mL.

1) Cc1cc(OCCC(C)(C)O)cc(C)c1-c1ccc(F)c2c1CC[C@H]2Nc1cnc([C@H]2C[C@@H]2C(=O)O)cn1 :: 87

Any idea what solubility at 24 h was measured for Cc1cc(OCCCS(C)(=O)=O)cc(C)c1-c1ccc(F)c2c1CC[C@H]2Nc1cnc([C@H]2C[C@@H]2C(=O)O)cn1 ?
92

----------
A set of compounds tested on cytochrome P450 2C8-isoenzyme (Homo sapiens (Human), UniProt P10632), with measured IC50:
One number for each entry, in µM.

1. Cc1cc(OCCCS(C)(=O)=O)cc(C)c1-c1ccc(F)c2c1CC[C@H]2Oc1ccc([C@H]2C[C@@H]2C(=O)O)cc1 [Example 11 in WO 2013/178575, reference compound] :: 12

# input for lookup
Any idea what IC50 was measured for Cc1cc(-c2nnn(C)n2)cc(C)c1-c1ccc(F)c2c1CC[C@H]2Nc1cnc([C@H]2C[C@@H]2C(=O)O)cn1 [Example 35] ?
21

----------
molecular target: cytochrome P450 2C9-isoenzyme (Homo sapiens (Human)); assay: Inhibition of CYP-2C9 (diclofenac hydroxylation, human liver microsomes); type: in vitro ADME; conditions: diclofenac 10 μM, 37° C.
Sequence (P11712 whole entry): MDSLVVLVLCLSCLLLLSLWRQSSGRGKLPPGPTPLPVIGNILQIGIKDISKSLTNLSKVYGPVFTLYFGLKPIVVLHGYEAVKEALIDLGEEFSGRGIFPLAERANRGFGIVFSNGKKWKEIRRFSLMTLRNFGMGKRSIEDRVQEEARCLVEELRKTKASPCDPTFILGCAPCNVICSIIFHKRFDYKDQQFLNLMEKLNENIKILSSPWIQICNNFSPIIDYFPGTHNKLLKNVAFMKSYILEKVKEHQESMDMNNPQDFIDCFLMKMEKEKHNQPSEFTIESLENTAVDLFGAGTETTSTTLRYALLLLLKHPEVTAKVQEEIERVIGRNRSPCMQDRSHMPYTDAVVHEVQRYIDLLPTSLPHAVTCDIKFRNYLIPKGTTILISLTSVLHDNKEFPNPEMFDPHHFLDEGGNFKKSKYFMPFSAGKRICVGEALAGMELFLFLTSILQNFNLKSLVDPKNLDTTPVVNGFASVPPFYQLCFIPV
Give measured IC50 for each item. Keep answers brief.
Give bare numbers, in µM.

1) Cc1cc(-c2nnn(C)n2)cc(C)c1-c1ccc(F)c2c1CC[C@H]2Nc1cnc([C@H]2C[C@@H]2C(=O)O)cn1 :: 32

Report IC50 for Cc1cc(OCCCS(C)(=O)=O)cc(C)c1-c1ccc(F)c2c1CC[C@H]2Oc1ccc([C@H]2C[C@@H]2C(=O)O)cc1 [Example 11 in WO 2013/178575, reference compound] tested on cytochrome P450 2C9-isoenzyme (Homo sapiens (Human)).
17

----------
target: human GPR40 receptor (Homo sapiens (Human), UniProt O14842); test: IP1 accumulation measurements using the IPOne assay system; assay type: cell-based; conditions: 1321N1 cells stably expressing human GPR40; IP1 accumulation; read-out: EC50
value.kind: pEC50
Give bare numbers, as −log10 of the molar value.

Some solved entries appear below for comparison.
1) Cc1cc(O[C@@H]2CCOC2)cc(C)c1-c1ccc(F)c2c1CC[C@H]2Nc1cnc([C@H]2C[C@@H]2C(=O)O)cn1 [Example 27] :: 7.89
2) Cc1cc(OCCC(C)(C)O)cc(C)c1-c1cccc2c1CC[C@H]2Nc1cnc([C@H]2C[C@@H]2C(=O)O)cn1 [Example 7] :: 8.40
3) COc1cnc(-c2ccc(-c3cccc4c3CC[C@H]4Nc3cnc([C@H]4C[C@@H]4C(=O)O)cn3)cc2)cn1 [Example 9] :: 7.46

Dear colleague, could you please provide pEC50 for the compounds listed below?
1. Cc1cccc(C)c1-c1ccc(F)c2c1CC[C@H]2Nc1cnc([C@H]2C[C@@H]2C(=O)O)cn1 [Example 15]
2. Cc1ccc(Cl)c(-c2ccc(F)c3c2CC[C@H]3Nc2cnc([C@H]3C[C@@H]3C(=O)O)cn2)c1Cl [Example 21]
3. Cc1cc(OCCC(C)(C)O)cc(C)c1-c1ccc(F)c2c1CC[C@H]2Nc1cnc([C@H]2C[C@@H]2C(=O)O)cn1 [Example 2]
4. Nc1cc(F)c(-c2ccc(F)c3c2CC[C@H]3Nc2cnc([C@H]3C[C@@H]3C(=O)O)cn2)c(F)c1 [Example 18]
5. Cc1cc(OCCCS(C)(=O)=O)cc(C)c1-c1ccc(F)c2c1CC[C@H]2Nc1cnc([C@H]2C[C@@H]2C(=O)O)cn1 [Example 4]
6. COc1cc(OC)c(-c2ccc(F)c3c2CC[C@H]3Nc2cnc([C@H]3C[C@@H]3C(=O)O)cn2)c(OC)c1 [Example 24]
7. Cc1cnc(-c2cc(C)c(-c3ccc(F)c4c3CC[C@H]4Nc3cnc([C@H]4C[C@@H]4C(=O)O)cn3)c(C)c2)nc1 [Example 38]
8. Cc1cc(CO)cc(C)c1-c1ccc(F)c2c1CC[C@H]2Nc1cnc([C@H]2C[C@@H]2C(=O)O)cn1 [Example 30]

8.15
8.40
8.40
6.82
8.10
6.89
8.40
7.70

Hello, the source for this data is patent US10253004B2, in case you need it.
